target.desc: recombinant guanylate cyclase reporter cell line (Rattus norvegicus, UniProt P19686+P20595)
Construct: expressed in transfected cells
Sequence (P19686 whole entry): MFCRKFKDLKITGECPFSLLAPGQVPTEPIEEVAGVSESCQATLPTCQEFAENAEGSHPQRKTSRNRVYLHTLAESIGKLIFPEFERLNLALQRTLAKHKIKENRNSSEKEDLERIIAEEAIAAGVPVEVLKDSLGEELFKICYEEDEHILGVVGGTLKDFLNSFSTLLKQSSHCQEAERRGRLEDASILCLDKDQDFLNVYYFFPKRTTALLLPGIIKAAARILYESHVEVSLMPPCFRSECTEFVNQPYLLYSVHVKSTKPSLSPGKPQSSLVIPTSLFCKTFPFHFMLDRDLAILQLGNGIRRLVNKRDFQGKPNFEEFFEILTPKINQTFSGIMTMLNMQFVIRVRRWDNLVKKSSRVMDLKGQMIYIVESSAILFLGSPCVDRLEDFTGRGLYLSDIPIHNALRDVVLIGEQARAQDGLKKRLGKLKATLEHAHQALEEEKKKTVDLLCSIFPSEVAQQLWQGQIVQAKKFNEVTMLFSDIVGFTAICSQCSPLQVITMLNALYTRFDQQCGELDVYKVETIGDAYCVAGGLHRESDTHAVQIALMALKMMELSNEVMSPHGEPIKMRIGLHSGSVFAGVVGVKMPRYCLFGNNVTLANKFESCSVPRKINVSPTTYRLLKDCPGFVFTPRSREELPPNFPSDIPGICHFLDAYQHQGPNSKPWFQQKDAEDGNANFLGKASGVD
Sequence (P20595 whole entry): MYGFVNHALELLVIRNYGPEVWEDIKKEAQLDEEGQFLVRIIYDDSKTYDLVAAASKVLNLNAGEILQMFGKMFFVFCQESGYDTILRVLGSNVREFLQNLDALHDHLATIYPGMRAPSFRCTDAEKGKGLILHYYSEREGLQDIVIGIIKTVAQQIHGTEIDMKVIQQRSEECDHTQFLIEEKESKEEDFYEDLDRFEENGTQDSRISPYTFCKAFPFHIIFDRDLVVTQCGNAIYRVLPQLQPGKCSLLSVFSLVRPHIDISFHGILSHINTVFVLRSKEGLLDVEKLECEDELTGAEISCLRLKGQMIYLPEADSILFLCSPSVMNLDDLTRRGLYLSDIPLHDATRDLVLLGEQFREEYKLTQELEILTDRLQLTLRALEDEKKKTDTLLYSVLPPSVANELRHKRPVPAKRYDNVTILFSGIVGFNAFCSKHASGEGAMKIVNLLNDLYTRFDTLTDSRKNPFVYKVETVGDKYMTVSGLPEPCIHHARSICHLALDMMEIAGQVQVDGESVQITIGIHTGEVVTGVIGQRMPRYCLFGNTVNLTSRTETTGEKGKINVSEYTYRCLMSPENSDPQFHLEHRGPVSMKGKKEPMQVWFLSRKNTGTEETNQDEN
protocol: Effect on a recombinant guanylate cyclase reporter cell line (B-2)
Type: cell-based
conditions.used: in some cases mean values for individual determinations
Method: B-2. Effect on a Recombinant Guanylate Cyclase Reporter Cell Line The cellular effect of the inventive compounds is determined using a recombinant guanylate cyclase reporter cell line, as described in F. Wunder et al., Anal. Biochem. 339, 104-112 (2005). Representative MEC values (MEC=minimum effective concentration) for the inventive compounds are shown in the table below (in some cases as mean values for individual determinations): […]
Could you please report measured MEC (minimum effective concentration) for the items listed next?
Respond with the bare value in µM.

The compound CCCC(C)(N)CNC(=O)c1c(C2CC2)nn2c(OCc3c(F)cccc3F)cc(C)cc12 (single isomer, unassigned) showed MEC (minimum effective concentration) equal to 0.1

MEC (minimum effective concentration) for Cc1cc(OCc2c(F)cccc2F)n2nc(C)c(C(=O)NCC(N)c3ccc(C)o3)c2c1 (racemic) is 3.0

Entry Cc1cc(OCc2c(F)cccc2F)n2nc(C)c(C(=O)NN3CCOCC3)c2c1 — recorded MEC (minimum effective concentration) = 3.0

Briefly, MEC (minimum effective concentration) measured for CCCC(C)(N)CNC(=O)c1cnn2c(OCc3c(F)cccc3F)cc(C)cc12 (single isomer, unassigned) : 3.0

Recorded result, Cc1cc(OCc2c(F)cccc2F)n2nc(C)c(C(=O)NCC(N)CC(F)(F)F)c2c1 (racemic) , MEC (minimum effective concentration): 3.0

The recorded MEC (minimum effective concentration) for entry Cc1cc(OCc2c(F)cccc2F)n2nc(C)c(C(=O)NCC(C)(N)CCC(F)(F)F)c2c1 (single isomer, unassigned) [Example 43] equals 0.1

The recorded MEC (minimum effective concentration) for CCCC(C)(N)CNC(=O)c1c(C)nn2c(OCC3CCCCC3)cc(C)cc12 (racemic) is 3.0

Quick note, MEC (minimum effective concentration) for CCC(N)(CC)CNC(=O)c1c(C)nn2c(OCc3c(F)ccc(F)c3F)cc(C)cc12 landed at 0.3

Input Cc1cc(OCc2c(F)cccc2F)n2nc(C)c(C(=O)NCC(N)c3ccc4ncccc4c3)c2c1 (racemic) . Output MEC (minimum effective concentration): 10

// sample Cc1cc(OCc2c(F)ccc(F)c2F)n2nc(C)c(C(=O)NC3c4ccccc4CC3O)c2c1 (stereo not shown) , its MEC (minimum effective concentration) was 1.0

COC(=O)C12CCC(NC(=O)c3c(C)nn4c(OCc5c(F)cccc5F)cc(C)cc34)(CC1)CC2 yielded MEC (minimum effective concentration) of 0.3

Looking up Cc1cc(OCc2c(F)ccc(F)c2F)n2nc(C)c(C(=O)NC(C)c3nc(C(F)(F)F)no3)c2c1 (racemic) , I found its MEC (minimum effective concentration) recorded as 0.3

Entry Cc1cc(OCc2c(F)cccc2F)n2nc(C)c(C(=O)NC(CN)c3ccc4c(c3)OCO4)c2c1 (racemic) — recorded MEC (minimum effective concentration) = 1.0
